Target: Human M4 (Homo sapiens, UniProt P08173)
Construct: Human or rat M4 cDNA, along with the chimeric G protein Gqi5, were transfected into Chinese hamster ovary (CHO-K1) cells
Sequence (P08173 whole entry): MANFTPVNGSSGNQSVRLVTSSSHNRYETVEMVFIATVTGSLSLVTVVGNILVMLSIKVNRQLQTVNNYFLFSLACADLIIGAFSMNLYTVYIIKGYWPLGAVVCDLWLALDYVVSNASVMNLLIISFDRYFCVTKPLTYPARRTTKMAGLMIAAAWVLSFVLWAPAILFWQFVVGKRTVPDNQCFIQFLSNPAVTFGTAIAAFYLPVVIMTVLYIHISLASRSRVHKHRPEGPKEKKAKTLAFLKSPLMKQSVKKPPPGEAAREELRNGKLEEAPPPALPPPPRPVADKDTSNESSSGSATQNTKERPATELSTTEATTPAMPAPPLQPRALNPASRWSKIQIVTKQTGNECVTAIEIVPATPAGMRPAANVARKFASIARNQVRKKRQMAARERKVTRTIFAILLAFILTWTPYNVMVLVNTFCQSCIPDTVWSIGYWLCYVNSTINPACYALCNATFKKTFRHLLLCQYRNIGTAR
Assay: mAChR M4 cell-based functional assay (calcium flux, decrease of EC80 acetylcholine response)
Conditions: M4/Gqi5/CHO-K1 cells; decrease of response to EC80 acetylcholine
Experimental: Human or rat M4 cDNA, along with the chimeric G protein Gqi5, were transfected into Chinese hamster ovary (CHO-K1) cells purchased from the American Type Culture Collection using Lipofectamine2000. […] Calcium flux was measured using the Functional Drug Screening System (FDSS) 6000 or 7000 (Hamamatsu Corporation, Tokyo, Japan) as an increase in the fluorescent static ratio. […] Agonist activity was analyzed as a concentration-dependent increase in calcium mobilization upon compound addition. […]
outcome-measure: IC50 (nM)

// query Request the reported IC50 associated with Cn1cnc2ccc(-c3cc(C(F)(F)F)c(N[C@H]4C[C@@H]5CN(Cc6ccccn6)C[C@@H]5C4)nn3)cc21 [Example 117]
// result 345

P. [2H]C([2H])([C@H]1CCOC1)N1C[C@H]2C[C@H](Nc3nnc(-c4cc(C)ccc4C)cc3C(F)(F)F)C[C@H]2C1 [Example 116]
Q. Cn1cc(-c2cc(C(F)(F)F)c(N[C@H]3C[C@@H]4CN(CC5CCOCC5)C[C@@H]4C3)nn2)cn1 [Example 66]
// query Hey, between P and Q which has a smaller measured IC50? Write down the label attached to your selection.
// result Q
